# Test system: SW-620 colon
# PROTOCOL_DETAILS: NCI tumour cell line growth inhibition, 48 h
REPORTED_METRIC: TGI

Below, each entry is followed by its recorded TGI result.
{"COMPOUND": "Cc1c(C(Cc2ccccc2N(C)C(=O)/C=C\\C(=O)O)c2c[nH]c3ccccc23)c2ccccc2n1C (centres undefined)", "TGI": "34.5 µM"}
{"COMPOUND": "COc1nc(NC2OC(COC(C)=O)C(OC(C)=O)C(OC(C)=O)C2OC(C)=O)c(N=CC=Nc2c(NC3OC(COC(C)=O)C(OC(C)=O)C(OC(C)=O)C3OC(C)=O)nc(OC)[nH]c2=O)c(=O)[nH]1 (centres undefined)", "TGI": "> 100 µM"}
{"COMPOUND": "O=C1C(Cl)C(c2cccc([N+](=O)[O-])c2)N1n1cnc2ccccc2c1=O (centres undefined)", "TGI": "> 100 µM"}

Please find the next compound below.
Inquiry: Look up and state reported TGI for CC1(C)N=C(N)N=C(N)N1c1ccc(OCCCNC(=O)Nc2ccc(S(=O)(=O)F)cc2)c(Cl)c1
Reply text: > 100 µM

* * *

# Test system: SNB-75 CNS
# PROTOCOL_DETAILS: NCI tumour cell line growth inhibition, 48 h; in the data active = GI50 below about 0.43 µM; inactive = the rest
Please state which outcome applies, choosing from active, inactive

A selection of reference data follows.
{"MOLECULE": "CCC(=C(c1ccc(OCCN2CCCCC2)cc1)c1ccc(OCCN2CCCCC2)cc1)c1ccc(Cl)cc1", "TEST_TARGET": "SNB-75 CNS", "CLASS_NAME": "inactive"}
{"MOLECULE": "CCOC(=O)c1noc2c1CCc1c-2cn(Cc2ccc(OC)cc2)c1-c1cc(OC)c(OC)c(OC)c1", "TEST_TARGET": "SNB-75 CNS", "CLASS_NAME": "inactive"}
{"MOLECULE": "CN(C)CCC(N)(P(=O)([O-])[O-])P(=O)([O-])[O-].N.N.[Pt+2]", "TEST_TARGET": "SNB-75 CNS", "CLASS_NAME": "inactive"}
{"MOLECULE": "COC(=O)[C@@H](C)C[C@H](Cc1ccccc1)NC(=O)c1nc([C@@H](C[C@H](C(C)C)N(C)C(=O)[C@@H](NC(=O)[C@H]2C[C@H](O)CCN2C)C(C)C)OC(C)=O)sc1C(C)C", "TEST_TARGET": "SNB-75 CNS", "CLASS_NAME": "active"}
{"MOLECULE": "Cc1c(Cl)cccc1C(=O)Nc1nc2c(s1)CN(C(=O)Nc1cccc(C(F)(F)F)c1)CC2", "TEST_TARGET": "SNB-75 CNS", "CLASS_NAME": "active"}
{"MOLECULE": "O=C1NN2CC(c3ccccc3)=NN=C2c2ccccc21", "TEST_TARGET": "SNB-75 CNS", "CLASS_NAME": "inactive"}
{"MOLECULE": "O=c1[nH]c2ccccc2n1C1CCNCC1", "TEST_TARGET": "SNB-75 CNS", "CLASS_NAME": "inactive"}
{"MOLECULE": "Nc1ccc(/C=C/c2ccc3ncccc3c2)cc1", "TEST_TARGET": "SNB-75 CNS", "CLASS_NAME": "inactive"}

Inquiry: Recorded test outcome, item CCN(Cc1ccc(OC)cc1)c1ccc(CO)c(Cl)c1
Reply text: inactive

Inquiry: Recorded test outcome, item ClC1=C(Cl)C(Cl)(C2(Cl)C(Cl)=C(Cl)C(Cl)=C2Cl)C(Cl)=C1Cl
Reply text: inactive

Inquiry: Recorded test outcome, item Nc1c(C(=O)Nc2cccc(Cl)c2)sc2nc3c(cc12)C(=O)CCC3
Reply text: active

Inquiry: Recorded test outcome, item N#CC1=C(N)Oc2c(sc3c(Br)cccc23)C1c1ccc([N+](=O)[O-])cc1 (centres undefined)
Reply text: active

Inquiry: Recorded test outcome, item CC(=O)/C(=C\c1ccc(Cl)cc1)c1ccccc1
Reply text: active

Inquiry: Recorded test outcome, item COc1cc2c(c3oc(-c4ccc(O)cc4)c(O)c(=O)c13)CCC(C)(C)O2
Reply text: active

From: PubChem BioAssay (NCI)
